# experiment.summary: pilot pharmacokinetic study in rats after intravenous administration
# Assay type: in vivo, rat
# run.conditions: male, Wistar, rat, serum, iv, 3 mg/kg
measured.parameter: clearance (mL/min/kg)

# compound.structure, scale.unit, readout.number
data = [
    ("CC(C)(C)c1ccc(OCCCN2CCCCC2)cc1", "mL/min/kg", 217),
]

###

# experiment.summary: pilot pharmacokinetic study in rats after intravenous administration
# Format: in vivo, rat
# run.conditions: male, Wistar, rat, serum, iv, 3 mg/kg

# compound.structure, scale.unit, half-life
measured = [
    ("CC(C)(C)c1ccc(OCCCN2CCCCC2)cc1", "h", 1.41),
]

Source listed as paper PMC3073091.
